B1: COUP transcription factor 1, residues 83 to 159; numbered along this chain, P10589 (parent)
chain: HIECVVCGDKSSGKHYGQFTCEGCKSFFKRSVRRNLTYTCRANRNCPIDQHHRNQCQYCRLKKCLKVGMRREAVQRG

- Variants of: B1
- measurement.protocol: abundance fitness (aPCA) (normalised: wild type 0, dead -1); higher = more abundant; growth selection in yeast, the domain comes from the species named
- test.settings: Homo sapiens
value.kind: abundance fitness
Answers are plain numbers.

Record excerpt, results attached:
# mutation.string, abundance fitness
data = [
    ("R34C", -0.759),
    ("G17D", -0.072),
]

Give measured abundance fitness for every item shown.
1. M69W
2. K62L
3. H51I

Given back:
1. -0.629
2. -0.015
3. -0.244

All values here come from the Human Domainome abundance scans (Beltran et al. 2025).
